Provenance of the data: patent US9969710B2

Exercise: for every item that follows, state its recorded IC50.
Molecular target: IRAK1 (Homo sapiens, UniProt P51617)
Construct: His-TEV-IRAK1 (194-712); His (N); TEV cleavage site (N)
Sequence (P51617 194-712): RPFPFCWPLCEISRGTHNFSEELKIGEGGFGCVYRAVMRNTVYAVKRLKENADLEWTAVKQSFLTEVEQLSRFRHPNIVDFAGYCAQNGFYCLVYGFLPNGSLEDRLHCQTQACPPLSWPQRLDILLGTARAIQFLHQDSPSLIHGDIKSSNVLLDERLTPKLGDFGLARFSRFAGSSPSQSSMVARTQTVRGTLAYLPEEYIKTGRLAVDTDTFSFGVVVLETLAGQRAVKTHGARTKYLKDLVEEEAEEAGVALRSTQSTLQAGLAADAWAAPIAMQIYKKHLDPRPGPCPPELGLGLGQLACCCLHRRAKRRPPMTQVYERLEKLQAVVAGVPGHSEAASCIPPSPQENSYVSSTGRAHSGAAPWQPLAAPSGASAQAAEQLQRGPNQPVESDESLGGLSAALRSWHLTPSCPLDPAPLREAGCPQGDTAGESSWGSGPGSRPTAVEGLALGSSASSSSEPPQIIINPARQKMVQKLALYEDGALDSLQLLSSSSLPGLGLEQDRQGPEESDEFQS
Assay: IRAK1 enzymatic assay (ADP-Glo luminescence)
Assay type: biochemical
Details: human recombinant His-TEV-IRAK1 (194-712), ATP 1 μM; read-out: IRAK 1 IC50
Procedure: IRAK1 is a human purified recombinant enzyme (His-TEV-IRAK1 (194-712)) In this assay, IRAK1 hydrolyses ATP and autophosphorylates. Measurement of IRAK-1 inhibition is performed in 384-well format based on luminescence assay (ADP-Glo™ Kinase Assay from Promega). […] After 20 minutes of incubation at RT, the luminescence signal is measured with a luminometer (PerkinElmer Envision or equivalent reader).

Data request: GET /values?readout=IC50&system=IRAK1 (Homo sapiens, UniProt P51617)&item= Cn1cccc(-c2ccc3c(c2)[nH]/c(=N\C(=O)c2cccc(C(F)(F)F)c2)n3CCCO)c1=O [Compound 4]
Data returned: 100 to 1000 nM

Data request: GET /values?readout=IC50&system=IRAK1 (Homo sapiens, UniProt P51617)&item= CN1CCC(C)(c2ccc3c(c2)nc(NC(=O)c2cccc(C(F)(F)F)c2)n3CCCO)C1=O (single isomer, unassigned) [Compound 29b]
Data returned: 100 to 1000 nM

Data request: GET /values?readout=IC50&system=IRAK1 (Homo sapiens, UniProt P51617)&item= O=C1C=C(c2ccc3c(c2)[nH]/c(=N\C(=O)c2cccc(C(F)(F)F)c2)n3CCCO)CO1 [Compound 9]
Data returned: 100 to 1000 nM

Data request: GET /values?readout=IC50&system=IRAK1 (Homo sapiens, UniProt P51617)&item= CN1CCCC(c2ccc3c(c2)[nH]/c(=N\C(=O)c2cccc(C(F)(F)F)c2)n3C[C@](C)(F)CO)C1=O (some centres unmarked) [Compound 16]
Data returned: 100 to 1000 nM

Data request: GET /values?readout=IC50&system=IRAK1 (Homo sapiens, UniProt P51617)&item= CN1C(=O)CC[C@@]1(C)c1ccc2c(c1)nc(NC(=O)c1cccc(C(F)F)c1)n2CCCO [Compound 31b]
Data returned: 1000 to 10000 nM

Data request: GET /values?readout=IC50&system=IRAK1 (Homo sapiens, UniProt P51617)&item= CN1CCC(C)(c2ccc3c(c2)nc(NC(=O)c2cccc(C(F)F)c2)n3CCCO)C1=O (single isomer, unassigned) [Compound 30a]
Data returned: 1000 to 10000 nM

Data request: GET /values?readout=IC50&system=IRAK1 (Homo sapiens, UniProt P51617)&item= CN1CCC(c2ccc3c(c2)[nH]/c(=N\C(=O)c2cccc(C(F)(F)F)c2)n3CC(O)CO)C1=O (centres unmarked) [Compound 20]
Data returned: 100 to 1000 nM

Data request: GET /values?readout=IC50&system=IRAK1 (Homo sapiens, UniProt P51617)&item= CN1C(=O)CCC1(C)c1ccc2c(c1)nc(NC(=O)c1cccc(C(F)F)c1)n2CCCO (centres unmarked) [Compound 31]
Data returned: 100 to 1000 nM

Data request: GET /values?readout=IC50&system=IRAK1 (Homo sapiens, UniProt P51617)&item= O=C(/N=c1\[nH]c2cc(C3CCCN(CC4CC4)C3=O)ccc2n1CCCO)c1cccc(C(F)(F)F)c1 (centres unmarked) [Compound 7]
Data returned: 100 to 1000 nM

Data request: GET /values?readout=IC50&system=IRAK1 (Homo sapiens, UniProt P51617)&item= CN1CCCC(c2ccc3c(c2)[nH]/c(=N\C(=O)c2cccc(C(F)F)c2)n3C[C@](C)(F)CO)C1=O (some centres unmarked) [Compound 2a]
Data returned: 100 to 1000 nM

Data request: GET /values?readout=IC50&system=IRAK1 (Homo sapiens, UniProt P51617)&item= CN1CC[C@@](C)(c2ccc3c(c2)nc(NC(=O)c2cccc(C(F)F)c2)n3CCCO)C1=O [Compound 30b]
Data returned: 100 to 1000 nM

Data request: GET /values?readout=IC50&system=IRAK1 (Homo sapiens, UniProt P51617)&item= CN1CCCC(c2ccc3c(c2)[nH]/c(=N\C(=O)c2cccc(C(F)(F)F)c2)n3CCC(O)CO)C1=O (single isomer, unassigned) [Compound 22d]
Data returned: 100 to 1000 nM

Data request: GET /values?readout=IC50&system=IRAK1 (Homo sapiens, UniProt P51617)&item= CN1CCC[C@@H](c2ccc3c(c2)[nH]/c(=N\C(=O)c2cccc(C(F)F)c2)n3C[C@](C)(F)CO)C1=O (single isomer, unassigned) [Compound 3b]
Data returned: 1000 to 10000 nM

Data request: GET /values?readout=IC50&system=IRAK1 (Homo sapiens, UniProt P51617)&item= CN1CCC(c2ccc3c(c2)[nH]/c(=N\C(=O)c2cccc(C(F)(F)F)c2)n3CCC(O)CO)C1=O (single isomer, unassigned) [Compound 21b]
Data returned: 100 to 1000 nM
